Below is a list of entries, each paired with its recorded IC50 value.
target: RIPK1 recombination protein (Homo sapiens (Human)); experiment: RIPK1 kinase activity assay (ADP-Glo); details: RIPK1 kinase activity, ADP-Glo, 10 μM ATP
Sequence (Q13546 other isoform, or with tags, fused parts or gaps): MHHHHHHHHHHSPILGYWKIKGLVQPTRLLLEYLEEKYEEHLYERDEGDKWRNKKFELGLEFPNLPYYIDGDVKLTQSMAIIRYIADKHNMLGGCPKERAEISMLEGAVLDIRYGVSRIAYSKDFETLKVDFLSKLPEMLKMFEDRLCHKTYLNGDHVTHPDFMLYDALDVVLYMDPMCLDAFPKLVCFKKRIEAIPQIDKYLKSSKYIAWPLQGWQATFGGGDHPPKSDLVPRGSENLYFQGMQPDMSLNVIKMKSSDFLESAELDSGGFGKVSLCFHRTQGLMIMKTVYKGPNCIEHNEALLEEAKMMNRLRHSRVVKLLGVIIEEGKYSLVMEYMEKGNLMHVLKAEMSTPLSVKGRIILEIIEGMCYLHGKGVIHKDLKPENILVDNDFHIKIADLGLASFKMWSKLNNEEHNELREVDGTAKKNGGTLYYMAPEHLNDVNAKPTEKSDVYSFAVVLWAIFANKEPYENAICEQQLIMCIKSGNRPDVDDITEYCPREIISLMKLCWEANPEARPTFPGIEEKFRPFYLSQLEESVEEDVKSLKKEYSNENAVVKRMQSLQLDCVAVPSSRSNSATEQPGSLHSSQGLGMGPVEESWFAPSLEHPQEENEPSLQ
I only need the number, in nM, no unit after it.

Solved entries:
C[C@H](n1cncc(-c2ccc(C3(NC(=O)c4ncc5cnn(CC6CC6)c5n4)CC3)c(F)c2)c1=O)C(F)(F)F: 110
CC(C)n1cncc(-c2ccc(C3(NC(=O)c4ncc5cnn(-c6ccccn6)c5n4)CC3)cc2)c1=O: 37
C[C@@H](n1cncc(-c2ccc(C3(NC(=O)c4ncc5cnn(CC6CC6)c5n4)CC3)c(F)c2)c1=O)C(F)(F)F: 51
CC(C)n1cncc(-c2ccc(C3(NC(=O)c4ncc5cnn(CC6CCC6)c5n4)CC3)cc2)c1=O: 21
CC(C)n1cncc(-c2ccc(C3(NC(=O)c4nc5n(n4)[C@@H](c4ccccc4)CC5)CC3)cc2)c1=O: 30

The recorded IC50 for CC(C)n1ncc2cnc(C(=O)NC3(c4ccc(-c5cncn(CC6CCC6)c5=O)cc4)CC3)nc21 is 48
